Test system: Saccharomyces cerevisiae;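 further: PSI is a weighted mean of sequencing reads over stability bins, variants kept only with over 10 reads, mCherry proximal and sfGFP distal, peptide attached via GGGS linker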
Assay: protein stability index of tFT-peptide fusion (C-terminal peptide) (PSI (0-1 scale)); higher = more stable (slower turnover)
Settings: genetic background: wild type; temperature: 30 C
The entries below are paired with their reported protein stability index.
Keep it simple and answer with nothing but the number.

Solved cases below.
{"Macromolecule sequence": "LSVEAGRGELLW", "Experimental endpoint": "protein stability index", "Numeric result": 0.69}
{"Macromolecule sequence": "TLTTVLSPHSHR", "Experimental endpoint": "protein stability index", "Numeric result": 0.716}
{"Macromolecule sequence": "PPPSLPATPIPP", "Experimental endpoint": "protein stability index", "Numeric result": 0.656}
{"Macromolecule sequence": "KKKEENGGRGDE", "Experimental endpoint": "protein stability index", "Numeric result": 0.701}
{"Macromolecule sequence": "FFFGFFSVLSLG", "Experimental endpoint": "protein stability index", "Numeric result": 0.606}

In plain terms, VCRCFPVCLFSF has a documented protein stability index of 0.413

In plain terms, LSYCLLALFFPL has a documented protein stability index of 0.501

Sure, the documented protein stability index for SVALGRQGTPNI is 0.651

Sample GVWPVGWWCRGR ; protein stability index observed: 0.748
